For each entry below, report its fold change of affinity value.
target: T1, Human CD137 ECD (human); assay: single mutant vs template dBBDu183H
T1 construct: also called 4-1BB
T1 sequence (chain, as listed by the source limits assumed): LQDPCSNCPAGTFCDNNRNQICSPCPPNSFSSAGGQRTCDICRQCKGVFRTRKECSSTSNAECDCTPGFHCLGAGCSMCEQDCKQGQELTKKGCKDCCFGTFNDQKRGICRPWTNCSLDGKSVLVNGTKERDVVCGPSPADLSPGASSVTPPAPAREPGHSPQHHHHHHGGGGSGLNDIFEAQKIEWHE
Numbers only, in fold.

# annotated cases, reported fold change of affinity shown
binder: H183/L072 VH K52L (antibody, name in Kabat numbering, V domains shown) VH: QVQLVESGGGLVQPGRSLRLSCAASGFTFSNAWMHWVRQAPGKGLEWVAQILDKGNAYAAYYAPSVKGRFTISRDDSKNSIYLQMNSLKTEDTAVYYCHYVHYASASTVLPAFGVDAWGQGTTVTVSS VL: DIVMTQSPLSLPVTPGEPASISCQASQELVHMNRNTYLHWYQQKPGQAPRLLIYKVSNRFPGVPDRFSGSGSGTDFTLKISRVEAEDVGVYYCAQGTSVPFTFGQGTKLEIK
fold change of affinity (fold): 0.1
--
binder: H183/L072 VH G26S (antibody, name in Kabat numbering, V domains shown) VH: QVQLVESGGGLVQPGRSLRLSCAASSFTFSNAWMHWVRQAPGKGLEWVAQIKDKGNAYAAYYAPSVKGRFTISRDDSKNSIYLQMNSLKTEDTAVYYCHYVHYASASTVLPAFGVDAWGQGTTVTVSS VL: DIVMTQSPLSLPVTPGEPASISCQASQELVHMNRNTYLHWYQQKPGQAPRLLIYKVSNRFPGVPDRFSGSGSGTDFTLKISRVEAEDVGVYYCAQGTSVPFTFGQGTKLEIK
fold change of affinity (fold): 0.4
--
binder: H183/L072 VH Q50N (antibody, name in Kabat numbering, V domains shown) VH: QVQLVESGGGLVQPGRSLRLSCAASGFTFSNAWMHWVRQAPGKGLEWVANIKDKGNAYAAYYAPSVKGRFTISRDDSKNSIYLQMNSLKTEDTAVYYCHYVHYASASTVLPAFGVDAWGQGTTVTVSS VL: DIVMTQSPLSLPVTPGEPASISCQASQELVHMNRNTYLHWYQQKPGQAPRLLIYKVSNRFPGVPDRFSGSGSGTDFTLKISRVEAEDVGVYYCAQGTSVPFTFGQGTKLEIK
fold change of affinity (fold): 0.5
--
binder: H183/L072 VH K52bF (antibody, name in Kabat numbering, V domains shown) VH: QVQLVESGGGLVQPGRSLRLSCAASGFTFSNAWMHWVRQAPGKGLEWVAQIKDFGNAYAAYYAPSVKGRFTISRDDSKNSIYLQMNSLKTEDTAVYYCHYVHYASASTVLPAFGVDAWGQGTTVTVSS VL: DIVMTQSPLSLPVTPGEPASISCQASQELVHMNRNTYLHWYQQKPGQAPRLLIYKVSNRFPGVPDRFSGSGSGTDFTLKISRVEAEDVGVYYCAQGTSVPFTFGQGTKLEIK
fold change of affinity (fold): 0.7
--
binder: H183/L072 VH A32Y (antibody, name in Kabat numbering, V domains shown) VH: QVQLVESGGGLVQPGRSLRLSCAASGFTFSNYWMHWVRQAPGKGLEWVAQIKDKGNAYAAYYAPSVKGRFTISRDDSKNSIYLQMNSLKTEDTAVYYCHYVHYASASTVLPAFGVDAWGQGTTVTVSS VL: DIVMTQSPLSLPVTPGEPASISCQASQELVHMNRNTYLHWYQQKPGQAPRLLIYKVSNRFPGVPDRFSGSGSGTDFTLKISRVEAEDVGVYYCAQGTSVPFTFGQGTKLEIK
fold change of affinity (fold): 0

Each of the following entries comes with a recorded value; kindly state fold change of affinity for each.
1. H183/L072 VH N31G (antibody, name in Kabat numbering, V domains shown) VH: QVQLVESGGGLVQPGRSLRLSCAASGFTFSGAWMHWVRQAPGKGLEWVAQIKDKGNAYAAYYAPSVKGRFTISRDDSKNSIYLQMNSLKTEDTAVYYCHYVHYASASTVLPAFGVDAWGQGTTVTVSS VL: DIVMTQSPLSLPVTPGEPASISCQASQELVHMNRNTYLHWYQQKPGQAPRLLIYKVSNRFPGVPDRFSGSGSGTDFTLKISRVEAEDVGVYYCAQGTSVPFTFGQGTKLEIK
2. H183/L072 VH G52cP (antibody, name in Kabat numbering, V domains shown) VH: QVQLVESGGGLVQPGRSLRLSCAASGFTFSNAWMHWVRQAPGKGLEWVAQIKDKPNAYAAYYAPSVKGRFTISRDDSKNSIYLQMNSLKTEDTAVYYCHYVHYASASTVLPAFGVDAWGQGTTVTVSS VL: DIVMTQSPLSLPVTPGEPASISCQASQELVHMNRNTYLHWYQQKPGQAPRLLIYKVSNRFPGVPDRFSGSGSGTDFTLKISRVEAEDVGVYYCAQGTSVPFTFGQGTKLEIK
3. H183/L072 VH Q50W (antibody, name in Kabat numbering, V domains shown) VH: QVQLVESGGGLVQPGRSLRLSCAASGFTFSNAWMHWVRQAPGKGLEWVAWIKDKGNAYAAYYAPSVKGRFTISRDDSKNSIYLQMNSLKTEDTAVYYCHYVHYASASTVLPAFGVDAWGQGTTVTVSS VL: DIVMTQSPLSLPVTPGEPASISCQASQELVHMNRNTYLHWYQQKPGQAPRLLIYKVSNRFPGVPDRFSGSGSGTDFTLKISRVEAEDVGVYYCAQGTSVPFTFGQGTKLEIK

Resp:
[0.3, 0.4, 1.7]

Each of the following entries comes with a recorded value; kindly state fold change of affinity for each.
1. H183/L072 VH G26R (antibody, name in Kabat numbering, V domains shown) VH: QVQLVESGGGLVQPGRSLRLSCAASRFTFSNAWMHWVRQAPGKGLEWVAQIKDKGNAYAAYYAPSVKGRFTISRDDSKNSIYLQMNSLKTEDTAVYYCHYVHYASASTVLPAFGVDAWGQGTTVTVSS VL: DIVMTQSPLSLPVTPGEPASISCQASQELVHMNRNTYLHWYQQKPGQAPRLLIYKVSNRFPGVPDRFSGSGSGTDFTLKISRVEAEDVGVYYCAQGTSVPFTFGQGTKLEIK
2. H183/L072 VH A56L (antibody, name in Kabat numbering, V domains shown) VH: QVQLVESGGGLVQPGRSLRLSCAASGFTFSNAWMHWVRQAPGKGLEWVAQIKDKGNAYLAYYAPSVKGRFTISRDDSKNSIYLQMNSLKTEDTAVYYCHYVHYASASTVLPAFGVDAWGQGTTVTVSS VL: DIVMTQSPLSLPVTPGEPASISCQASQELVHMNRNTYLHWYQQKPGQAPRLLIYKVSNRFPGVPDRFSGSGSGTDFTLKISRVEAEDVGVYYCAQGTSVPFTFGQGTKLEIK

Resp:
1: 0.3; 2: 0.5
